Values from PubChem BioAssay AID841

Recorded protection (pct of control) values for a group of compounds are listed next.
- method-notes: blockers of measles virus-induced cell death – single point, MLSMR library, absorbance, measles RdRp inhibitor project, primary screen (AID 841)
- stated-conditions: Measles virus-infected cells, CPE protection, at 4 µM, active compounds read high
The campaign covered roughly 140,000 compounds. About 2,100 (1.5%) were called active. The list comes from a sample in which actives are over-represented; it also holds close analogues and randomly drawn compounds.
measure: protection (pct of control) (%)

O=C(Cn1nc(Cc2cccnc2)c2ccccc2c1=O)NCC1CCCO1 (stereo not drawn)    2.54
CCCCN1C(=O)CCC(C(=O)O)C1c1ccc(OC)cc1 (stereo not drawn)    18.6
COc1ccc(-n2c(C)nc3c(cnn3-c3ccccc3)c2=O)cc1    1.2
